Kindly supply the reported inhibition values for the records listed here.
- System: transactivating tegument protein VP16 (Human herpesvirus 1), Gal4-VP16 luciferase reporter
- assayText: VP16 transactivation inhibitors, counter-screen for SRC3 inhibitor project, cell-based, luminescence, high throughput (AID 588794)
- experimentalSetup: mammalian cells, VP16-driven luciferase reporter luminescence; at 3.6 µM; hits give high values
Field: numeric (%). Do not append units.

Req: GET inhibition where system = transactivating tegument protein VP16 (Human herpesvirus 1), Gal4-VP16 luciferase reporter and item = `O=C(Nc1ccc(S(=O)(=O)N2CCCCC2)cc1)c1ccc(CN2CCOCC2)cc1`
Resp: 46

Req: State inhibition on transactivating tegument protein VP16 (Human herpesvirus 1), Gal4-VP16 luciferase reporter. Entry: `COc1cccc(/C=N/NC(=O)c2c(C)nc3ccc(Cl)cn23)c1O`
Resp: 78.5

Req: Enter recorded inhibition with transactivating tegument protein VP16 (Human herpesvirus 1), Gal4-VP16 luciferase reporter for C[C@H]1CCC/C=C/[C@@H]2C[C@H](O)C[C@H]2[C@H](O)[C@H](S(=O)c2ccc(O)cc2)CC(=O)O1 (stereo not given in full) here.
Resp: 77.6

Req: Report value only: inhibition, transactivating tegument protein VP16 (Human herpesvirus 1), Gal4-VP16 luciferase reporter, `Oc1ccc(CCNc2ncnc3ccc(Cl)cc23)cc1`
Resp: 61.6

Req: Give inhibition only, for `COC1=CC(=O)c2nc(Cl)ccc2C1=O` , using transactivating tegument protein VP16 (Human herpesvirus 1), Gal4-VP16 luciferase reporter data.
Resp: 55.1

Reference for the values: PubChem BioAssay
